target: JAK1 (Homo sapiens (Human)); assay: Analysis of JAK1 activity inhibition ability (ADP-Glo Kinase Assay); type: biochemical; conditions: JAK1 enzyme, ADP-Glo luminescence, ATP 250 uM, IRS-itide substrate, 30° C. 40 minutes; read-out: IC50
Sequence (P23458 whole entry): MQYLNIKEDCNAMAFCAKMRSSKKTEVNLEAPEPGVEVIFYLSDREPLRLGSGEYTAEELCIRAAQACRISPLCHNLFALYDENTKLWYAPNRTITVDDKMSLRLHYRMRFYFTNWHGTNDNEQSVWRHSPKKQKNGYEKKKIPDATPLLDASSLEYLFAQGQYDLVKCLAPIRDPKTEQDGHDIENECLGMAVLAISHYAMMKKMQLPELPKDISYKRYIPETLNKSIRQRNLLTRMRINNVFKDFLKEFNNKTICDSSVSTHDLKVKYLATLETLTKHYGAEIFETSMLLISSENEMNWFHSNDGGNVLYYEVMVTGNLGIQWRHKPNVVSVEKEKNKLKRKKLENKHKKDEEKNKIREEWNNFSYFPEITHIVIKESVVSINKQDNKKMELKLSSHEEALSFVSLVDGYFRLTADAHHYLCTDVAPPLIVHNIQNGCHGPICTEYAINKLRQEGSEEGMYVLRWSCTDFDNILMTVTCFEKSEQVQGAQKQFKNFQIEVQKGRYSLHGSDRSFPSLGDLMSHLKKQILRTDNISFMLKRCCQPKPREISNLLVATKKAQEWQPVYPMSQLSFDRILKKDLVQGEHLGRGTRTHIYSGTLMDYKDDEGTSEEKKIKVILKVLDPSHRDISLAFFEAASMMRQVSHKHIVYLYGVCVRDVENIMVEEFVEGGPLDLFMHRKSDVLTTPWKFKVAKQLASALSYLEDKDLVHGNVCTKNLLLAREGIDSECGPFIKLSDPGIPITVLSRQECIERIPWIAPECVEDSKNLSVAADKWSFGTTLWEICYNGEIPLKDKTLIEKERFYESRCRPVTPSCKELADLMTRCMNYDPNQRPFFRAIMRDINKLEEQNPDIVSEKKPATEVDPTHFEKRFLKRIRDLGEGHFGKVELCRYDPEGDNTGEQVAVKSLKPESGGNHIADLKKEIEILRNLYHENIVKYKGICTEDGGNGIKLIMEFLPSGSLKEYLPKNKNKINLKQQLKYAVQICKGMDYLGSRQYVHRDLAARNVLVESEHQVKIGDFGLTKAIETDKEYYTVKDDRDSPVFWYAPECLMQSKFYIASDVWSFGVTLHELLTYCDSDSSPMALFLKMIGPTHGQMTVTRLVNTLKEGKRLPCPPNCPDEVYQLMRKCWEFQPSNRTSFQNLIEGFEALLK

{"columns": ["MOLECULE", "IC50"],
 "data": [
  ["O=C(Nc1cc(-c2ccc(NS(=O)(=O)c3ccc4c(c3)OCCO4)cc2)c2cc[nH]c2n1)C1CC1", "20 to 200 nM"],
  ["N#CCC(=O)N1CC=C(c2cc(NC(=O)C3CC3)nc3[nH]ccc23)CC1", "< 20 nM"],
  ["CN(CC#N)C(=O)Cc1ccc(-c2cc(NC(=O)C3CC3)nc3[nH]ccc23)cc1", "20 to 200 nM"],
  ["CCC1C=C(c2cc(NC(=O)C3CC3)nc3[nH]ccc23)CC(CC)N1C(=O)CC#N (centres unmarked)", "< 20 nM"],
  ["O=C(Nc1cc(-c2ccc(NS(=O)(=O)CC(F)F)cc2)c2cc[nH]c2n1)C1CC1", "20 to 200 nM"],
  ["N#CCC(=O)N1CC2CCC(C1)N2c1cc(NC(=O)C2CC2)nc2[nH]ccc12", "20 to 200 nM"],
  ["O=C(Nc1cc(C2=CC3CCC(C2)N3C(=O)CCC(F)(F)F)c2cc[nH]c2n1)C1CC1 (centres unmarked)", "< 20 nM"],
  ["N#Cc1cc(NS(=O)(=O)CC2(C#N)CC2)ccc1-c1cc(NC(=O)C2CC2)nc2[nH]ccc12", "> 200 nM"]
]}

FYI, the data here is from patent US11524968B2.
